Taken from patent EP4350345A2.

# experimental system: monoclonal antibody 21-4-3
# method description: SPR, 21-4-3 captured via anti-mouse IgG, 500 nM
quantity kind: binding as % of Reference Sequence (=100%)
Just the number in %, nothing appended.

Task: Which value of binding as % of Reference Sequence (=100%) has been reported for Nanobody or Nanobody construct of SEQ ID NO: 45 (VHH) VHH: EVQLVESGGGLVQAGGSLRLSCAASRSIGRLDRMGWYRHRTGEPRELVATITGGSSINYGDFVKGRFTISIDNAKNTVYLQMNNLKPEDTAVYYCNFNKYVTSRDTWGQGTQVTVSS in the records?
Output: 22

Task: Another binder to look at: Nanobody or Nanobody construct of SEQ ID NO: 68 (VHH) VHH: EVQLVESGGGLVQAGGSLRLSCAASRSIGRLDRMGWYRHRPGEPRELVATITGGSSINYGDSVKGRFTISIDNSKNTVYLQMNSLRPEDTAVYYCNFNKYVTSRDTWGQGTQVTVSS
Output: 26
